molecular target: MERS-CoV 3CLpro (Middle East respiratory syndrome-related coronavirus, UniProt K9N7C7); assay: biochemical
Sequence (K9N7C7 3248-3553): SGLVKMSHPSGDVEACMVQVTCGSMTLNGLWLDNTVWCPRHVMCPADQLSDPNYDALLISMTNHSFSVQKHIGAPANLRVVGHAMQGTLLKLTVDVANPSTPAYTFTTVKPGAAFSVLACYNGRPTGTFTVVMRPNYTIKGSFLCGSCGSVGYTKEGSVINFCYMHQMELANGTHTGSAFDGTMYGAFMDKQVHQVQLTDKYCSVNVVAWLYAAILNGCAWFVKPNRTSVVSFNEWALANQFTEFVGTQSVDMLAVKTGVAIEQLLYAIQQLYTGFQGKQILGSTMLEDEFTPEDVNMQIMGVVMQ
Please provide measured pIC50 for the entries that follow.
Expect pIC50 as a plain number equal to -log10 of the molar concentration.

Summary for this compound, CCC(C)(C)[C@H](NC(=O)[C@@H]1CC1(F)F)C(=O)N1C[C@@H]2CCC[C@@H]2[C@H]1C(=O)NN(C[C@@H]1CCNC1=O)C(=O)[C@H](F)Cl [Example 150] : pIC50 is 7.20

Summary for this compound, CC1(C)[C@@H]2[C@@H](C(=O)NN(C[C@@H]3CCNC3=O)C(=O)[C@H](F)Cl)N(C(=O)Cc3cc(C(F)(F)F)cc(C(F)(F)F)c3)C[C@@H]21 [Example 178] : pIC50 is 6.58

Summary for this compound, CCC(C)(C)[C@H](NC(=O)C1CC1)C(=O)N1C[C@@H]2CCC[C@@H]2[C@H]1C(=O)NN(C[C@H]1CCCNC1=O)C(=O)[C@H](F)Cl [Example 167b] : pIC50 is 5.79

Summary for this compound, CC[C@H](C)[C@H](NC(=O)C(C)(C)C)C(=O)N1C[C@@H]2CCC[C@@H]2[C@H]1C(=O)NN(C[C@@H]1CCNC1=O)C(=O)[C@H](F)Cl [Example 44] : pIC50 is 7.26

Summary for this compound, CC[C@H](C)[C@H](NC(=O)C(F)(F)C(F)(F)F)C(=O)N1C[C@@H]2CCC[C@@H]2[C@H]1C(=O)NN(C[C@@H]1CCNC1=O)C(=O)[C@H](F)Cl [Example 50] : pIC50 is 7.38

---

Parameter Measured: pIC50
Expect pIC50 as a plain number equal to -log10 of the molar concentration.

The compound CC(C)(C)[C@H](NC(=O)C(F)F)C(=O)N1C[C@H]2[C@@H]([C@H]1C(=O)NN(C[C@@H]1CCNC1=O)C(=O)[C@H](F)Cl)C2(C)C [Example 14] , when measured on HCoV-229E 3CLpro (Human coronavirus 229E), yielded pIC50 of 7.44

The compound CCC(CC)[C@H](NC(=O)C(F)F)C(=O)N1C[C@H]2[C@@H]([C@H]1C(=O)NN(C[C@@H]1CCCNC1=O)C(=O)[C@H](F)Cl)C2(C)C [Example 173] , when measured on HCoV-229E 3CLpro (Human coronavirus 229E), yielded pIC50 of 7.57

The compound CC[C@@H](C)[C@H](NC(=O)[C@H](C)F)C(=O)N1C[C@H]2[C@@H]([C@H]1C(=O)NN(C[C@@H]1CCNC1=O)C(=O)[C@H](F)Cl)C2(C)C [Example 117] , when measured on HCoV-229E 3CLpro (Human coronavirus 229E), yielded pIC50 of 7.60

---

Parameter Measured: IC50 (nM)
Just the number please, in nM, no unit attached.

The compound CC(C)(C)C(=O)N[C@H](C(=O)N1C[C@H]2[C@@H]([C@H]1C(=O)NN(C[C@@H]1CCNC1=O)C(=O)[C@H](F)Cl)C2(C)C)C(C)(C)C , when measured on MERS-CoV 3CLpro (Middle East respiratory syndrome-related coronavirus, UniProt K9N7C7), yielded IC50 of 260

The compound CC(C)(C)[C@H](NC(=O)[C@@H]1CC1(F)F)C(=O)N1C[C@H]2[C@@H]([C@H]1C(=O)NN(C[C@@H]1CCNC1=O)C(=O)[C@H](F)Cl)C2(C)C , when measured on MERS-CoV 3CLpro (Middle East respiratory syndrome-related coronavirus, UniProt K9N7C7), yielded IC50 of 57

The compound CCC(CC)[C@H](NC(=O)C(F)F)C(=O)N1C[C@H]2[C@@H]([C@H]1C(=O)NN(C[C@@H]1CCCNC1=O)C(=O)[C@H](F)Cl)C2(C)C , when measured on MERS-CoV 3CLpro (Middle East respiratory syndrome-related coronavirus, UniProt K9N7C7), yielded IC50 of 175

The compound CCC(CC)[C@H](NC(=O)C1(F)CC1)C(=O)N1C[C@H]2[C@@H]([C@H]1C(=O)NN(C[C@@H]1CCNC1=O)C(=O)[C@@H](F)Cl)C2(C)C , when measured on MERS-CoV 3CLpro (Middle East respiratory syndrome-related coronavirus, UniProt K9N7C7), yielded IC50 of 106

The compound CC(C)(C)[C@H](NC(=O)C1(F)CCC1)C(=O)N1C[C@@H]2CCC[C@@H]2[C@H]1C(=O)NN(C[C@@H]1CCNC1=O)C(=O)[C@H](F)Cl , when measured on MERS-CoV 3CLpro (Middle East respiratory syndrome-related coronavirus, UniProt K9N7C7), yielded IC50 of 208
